B1: library; numbered along this chain (parent)
chain: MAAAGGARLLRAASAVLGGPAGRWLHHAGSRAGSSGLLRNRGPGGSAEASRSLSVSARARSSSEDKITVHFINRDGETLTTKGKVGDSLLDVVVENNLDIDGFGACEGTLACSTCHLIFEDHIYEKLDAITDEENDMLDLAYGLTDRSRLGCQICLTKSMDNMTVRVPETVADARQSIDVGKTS

- Variants of: B1
- Assay method text: scaled log2 fold change in cell abundance, elesclomol vs control (0 = silent mean, 1 = nonsense mean) (scaled log2 ratio); higher = higher viability under elesclomol (loss of FDX1 cuproptosis function);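 note: variant abundance is its share of total variant reads in each endpoint sample, from next-generation sequencing of the integrated ORF PCR-amplified out of genomic DNA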
- Settings: with HEK293T FDX1 KO; elesclomol 40 nM; glucose 10 mM; 11 days
Reported scaled log2 fold change values are given for each entry in this list.
Measure name: scaled log2 fold change

1) I123P; -0.674
2) K82T; 0.0849
3) L117S; -1.36
4) T109H; -0.84
5) E125I; -0.618
6) A13C; 0.158
7) E77A; 1.06
8) V165P; 0.4
9) T157C; 0.206
10) S50A; 0.141
11) Y142W; 0.733
